- Tested on: 786-0 renal
- test: NCI-60 one-dose screen, 48 h (100 = growth as untreated, 0 = no growth, -100 = all killed)
- condition_context: 10 µM unless noted
This is part of a sample that, as a whole, favours compounds with a hit. Of some 83,000 tested, about 20% had one in any assay.
Catalogue of compounds with associated growth
quantity_kind: growth (%)

1) CC1CCCCN1S(=O)(=O)c1ccc(CN=C=S)cc1 (stereo not drawn)
55.9
2) COc1ccc(Nc2nc(NCCNc3ccnc4cc(Cl)ccc34)nc(N3CCOCC3)n2)cc1
57.2
3) O=c1oc2ccccc2cc1-c1csc(N=Nc2c(O)[nH]c3ccc(Cl)cc23)n1
105
